The measurements presented in this section are drawn from patent US9789181B2.

- target-entity: HLA DRB1 *0101 (Homo sapiens, UniProt P01903+P01911, A100R/D57E/F55L/F60I/F76Y/I96L/L162R/M171V/P40L/Q125E/R42F/V115G/Y59C)
- protocol-notes: IC50nM to purified HLA | DRB1 *0101
Where no end group is shown, it is not given here.
readout-kind: IC50 (nM)
Give bare numbers, in nM.

AAAIFVAANTLHAAA [SEQ ID NO: 72] ... 7.3

Kindly give each listed record's IC50.
1. AAANFVAAFTLKAEA [SEQ ID NO: 61]
2. AAAQFVAAYTLHAAA [SEQ ID NO: 65]
3. AAAQFVAAWTLKAAA [SEQ ID NO: 63]
4. AAAIFVAAWTLKAAA [SEQ ID NO: 68]

1: 8; 2: 4.2; 3: 5.1; 4: 4

* * *

Could you please report measured pIC50 for the items listed next?
- target-entity: HLA DRB1 *0701 (Homo sapiens, UniProt P01903+P01911, A100R/A102G/A103Q/D57E/D86V/E43K/F76Y/K127E/L162R/M171V/P40G/Q125H/Q99D/R33Q/R42Y/R54Q/S133A/S66F/T210M/V115G/Y107V/Y59L/Y89S)
- protocol-notes: IC50nM to purified HLA | DRB1 *0701
Where no end group is shown, it is not given here.
Give bare numbers, as −log10 of the molar value.

AAAIFVAAWTLKAAA [SEQ ID NO: 68] ... 7.12

Kindly give each listed record's pIC50.
1. AAANFVAAFTLHAAA [SEQ ID NO: 53]
2. AAAIFVAAFTLHAAA [SEQ ID NO: 71]
3. AAANFVAANTLHAAA [SEQ ID NO: 54]
4. AAAIFVAAWTLHAAA [SEQ ID NO: 69]
5. AAAIFVAANTLHAAA [SEQ ID NO: 72]

1. 7.28
2. 6.69
3. 7.08
4. 7.11
5. 6.96

Entry AAAQFVAANTLHAAA [SEQ ID NO: 67] : reported pIC50 = ? 7.12

* * *

- target-entity: HLA DRB1 *0404 (Homo sapiens, UniProt P01903+P01911, A100R/A169T/F76Y/I96L/K127E/L162R/M171V/N62H/P40V/Q125Y/R42H/S133A/S149N/S66Y/V209L/W38E)
- protocol-notes: IC50nM to purified HLA | DRB1 *0404
- Description: Table printed on a drawing sheet, FIG. 1 (contd.) Head of the field: IC50nM to purified HLA | DRB1 *0404 First copying reader's note: Continued from an earlier sheet of FIG. 1; decimal commas as printed, analog names encode substituted residues and positions, and some values are printed in italics or bold and some SEQ ID NOs underlined without a legend on this sheet. Where the first naming reader finds the target: head: IC50nM to purified HLA | DRB1 *0404
Where no end group is shown, it is not given here.
Threshold 6 nM: IC50 strictly smaller gives criterion met, otherwise criterion not met.

See these solved cases before continuing.
AAAIFVAAWTLKAAA [SEQ ID NO: 68] ... criterion met
AAAIFVAAWTLHAAA [SEQ ID NO: 69] ... criterion met
AAANFVAAFTLKADA [SEQ ID NO: 57] ... criterion not met
AAAQFVAAFTLHAAA [SEQ ID NO: 66] ... criterion met
AAANFVAAWTLKADA [SEQ ID NO: 55] ... criterion not met

Hello, I'm reviewing records and need to know if IC50 of AAANFVAANTLKAEA [SEQ ID NO: 62] is below 6 nM. Could you check? criterion not met

Hello, I'm reviewing records and need to know if IC50 of AAAIFVAAFTLHAAA [SEQ ID NO: 71] is below 6 nM. Could you check? criterion met

Hello, I'm reviewing records and need to know if IC50 of AAANFVAAYTLKADA [SEQ ID NO: 56] is below 6 nM. Could you check? criterion not met

Hello, I'm reviewing records and need to know if IC50 of AAAIFVAANTLHAAA [SEQ ID NO: 72] is below 6 nM. Could you check? criterion met

* * *

- target-entity: HLA DRB1 *0301 (Homo sapiens, UniProt P01903+P01911, A100K/A102G/A103R/A169T/F55Y/I96L/K41T/L162R/M171V/P40S/Q125H/Q178H/Q39Y/R42S/S66N/T106N/T262R/W38E/Y61H)
- Sequence (P01903 26-254 limits assumed, other chains not shown): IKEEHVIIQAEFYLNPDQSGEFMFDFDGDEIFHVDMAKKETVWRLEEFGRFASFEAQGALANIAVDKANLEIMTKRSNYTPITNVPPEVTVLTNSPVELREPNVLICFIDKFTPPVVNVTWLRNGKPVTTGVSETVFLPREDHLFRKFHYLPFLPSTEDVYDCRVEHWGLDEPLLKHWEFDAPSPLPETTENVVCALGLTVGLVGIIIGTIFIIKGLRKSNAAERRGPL
- protocol-notes: IC50nM to purified HLA | DRB1 *0301
pIC50: −log10 of the molar value. Where no end group is shown, it is not given here.
# if value of pIC50 reaches 6, tag T; if it stays below, tag F

See these solved cases before continuing.
AAANFVAAFTLHAAA [SEQ ID NO: 53] ... T
AAANFVAAFTLKAEA [SEQ ID NO: 61] ... F
AAAQFVAANTLHAAA [SEQ ID NO: 67] ... T
AAAQFVAAYTLHAAA [SEQ ID NO: 65] ... T

Could you verify whether the entry AAANFVAANTLKAEA [SEQ ID NO: 62] shows pIC50 of no less than 6? F

* * *

Could you please report measured IC50 for the items listed next?
- target-entity: HLA DRB1 *0802 (Homo sapiens, UniProt P01903+P01911, A100R/A103L/A169T/F76Y/H45Y/I96F/K41T/L162R/M171V/P40S/Q125H/Q178H/Q39Y/Q99D/R218S/R42G/S66Y/V115G/W38E)
- protocol-notes: IC50nM to purified HLA | DRB1 *0802
Where no end group is shown, it is not given here.
Numbers only, in nM.

Sample answers from the record:
AAAHFVAAWTLKADA [SEQ ID NO: 31] ... 24
AAANFVAAWTLHAAA [SEQ ID NO: 51] ... 13
AAAEFVAAWTLHAAA [SEQ ID NO: 46] ... 24
AAAHFVAANTLKADA [SEQ ID NO: 34] ... 67
AAAEFVAAFTLHAAA [SEQ ID NO: 48] ... 19
AAAHFVAAFTLKAEA [SEQ ID NO: 38] ... 19

Kindly give each listed record's IC50.
1. AAADFVAAYTLHAAA [SEQ ID NO: 42]
2. AAADFVAANTLHAAA [SEQ ID NO: 44]
3. AAAHFVAAFTLHAAA [SEQ ID NO: 28]
4. AAAHFVAANTLHAAA [SEQ ID NO: 29]
5. AAAHFVAANTLKAEA [SEQ ID NO: 39]

14
44
11
17
64

Kindly give each listed record's IC50.
1. AAADFVAAWTLHAAA [SEQ ID NO: 41]
2. AAAEFVAAWTLKAAA [SEQ ID NO: 45]
3. AAAKFVAAWTLKAEA [SEQ ID NO: 35]
4. AAANFVAAWTLKAAA [SEQ ID NO: 50]
5. AAAEFVAANTLHAAA [SEQ ID NO: 49]

1: 24; 2: 16; 3: 21; 4: 8.5; 5: 37

Kindly give each listed record's IC50.
1. AAAHFVAAWTLKAEA [SEQ ID NO: 36]
2. AAAEFVAAYTLHAAA [SEQ ID NO: 47]
3. AAADFVAAWTLKAAA [SEQ ID NO: 40]

1: 22; 2: 13; 3: 17

* * *

Could you please report measured IC50 for the items listed next?
- target-entity: purified HLA DRB1 *0401 (Homo sapiens, UniProt P01903+P01911, A100K/A169T/F76Y/I96L/K127E/L162R/M171V/N62H/P40V/Q125Y/R42H/S133A/S149N/S66Y/V115G/V209L/W38E)
- protocol-notes: IC50nM to purified HLA | DRB1 *0401
Where no end group is shown, it is not given here.
Answers are plain numbers, in nM.

AAAFFVAAYTLKADA [SEQ ID NO: 17] ... 5
AAAHFVAAWTLKAAA [SEQ ID NO: 25] ... 3.1
AAAFFVAAYTLHAAA [SEQ ID NO: 13] ... 1.7
AAAWFVAANTLHAAA [SEQ ID NO: 10] ... 2.9
AAAYFVAAWTLKAAA [SEQ ID NO: 20] ... 1.6
AAAHFVAAYTLHAAA [SEQ ID NO: 27] ... 3.4

Now consider a different sequence.
Entry AAAWFVAAYTLHAAA [SEQ ID NO: 8] : reported IC50 = ? 3.8

* * *

- target-entity: purified HLA DRB1 *0802 (Homo sapiens, UniProt P01903+P01911, A100R/A103L/A169T/F76Y/H45Y/I96F/K41T/L162R/M171V/P40S/Q125H/Q178H/Q39Y/Q99D/R218S/R42G/S66Y/V115G/W38E)
- protocol-notes: IC50nM to purified HLA | DRB1 *0802
pIC50: −log10 of the molar value. Where no end group is shown, it is not given here.
# if value of pIC50 reaches 8, tag t; if it stays below, tag f

AAAYFVAAYTLHAAA [SEQ ID NO: 22] ... t
AAAKFVAAWTLKAAA [SEQ ID NO: 4] ... t

Could you verify whether the entry AAAFFVAAWTLKADA [SEQ ID NO: 16] shows pIC50 of no less than 8? f
